- Tested on: HCC1954 (Breast Carcinoma)
- ASSAY: combination Emax (second highest fraction inhibited in the dose matrix, 72 h); higher = more inhibition; extreme values may be limits of the assay
ASSAY READOUT: combination Emax

INSERT INTO results (compound, measured_value) VALUES
  ('CC(=O)c1c(C)c2cnc(Nc3ccc(N4CCNCC4)cn3)nc2n(C2CCCC2)c1=O [Palbociclib] + Cn1cnc2c(F)c(Nc3ccc(Br)cc3Cl)c(C(=O)NOCCO)cc21 [Selumetinib] (first compound max 10 µM, 7x7, partner max 10 µM)', 0.178),
  ('COc1cccc(OCCCN)c1-c1cc(Nc2cnc(C#N)cn2)n[nH]1 [Prexasertib] + C=CCn1c(=O)c2cnc(Nc3ccc(N4CCN(C)CC4)cc3)nc2n1-c1cccc(C(C)(C)O)n1 [AZD1775] (first compound max 1 µM, partner max 1 µM)', 0.963),
  ('CN(C)CCCOc1ccc(-c2ccc3ncc4c(c3c2)n(C2CCOCC2)c(=O)n4C)cn1 [AZD0156] + O=C(c1cc(Cc2n[nH]c(=O)c3ccccc23)ccc1F)N1CCN(C(=O)C2CC2)CC1 [Olaparib] (first compound max 3 µM, partner max 3 µM)', 0.218),
  ('C=CCn1c(=O)c2cnc(Nc3ccc(N4CCN(C)CC4)cc3)nc2n1-c1cccc(C(C)(C)O)n1 [AZD1775] + O=C(c1cc(Cc2n[nH]c(=O)c3ccccc23)ccc1F)N1CCN(C(=O)C2CC2)CC1 [Olaparib] (first compound max 1 µM, partner max 10 µM)', 0.218),
  ('NC1(C(=O)N[C@@H](CCO)c2ccc(Cl)cc2)CCN(c2ncnc3[nH]ccc23)CC1 [Capivasertib] + COc1nnc2ccc(N3CCC(c4ccc(OCCN5CCN(C)C(=O)[C@H]5C)cc4)CC3)nn12 [AZD5153] (first compound max 10 µM, 7x7, partner max 1 µM)', 0.922),
  ('CN(CCO)CC[C@H](CSc1ccccc1)Nc1ccc(S(=O)(=O)NC(=O)c2ccc(N3CCC([C@@H](O)c4ccccc4-c4ccc(Cl)cc4)CC3)cc2)cc1S(=O)(=O)C(F)(F)F [AZD4320] + Cn1cnc2c(F)c(Nc3ccc(Br)cc3Cl)c(C(=O)NOCCO)cc21 [Selumetinib] (first compound max 1 µM, 7x7, partner max 3 µM)', 0.617);

* * *

- Test system: CAPAN-2 (Pancreatic Carcinoma)
- ASSAY: combination Emax (second highest fraction inhibited in the dose matrix, 72 h); higher = more inhibition; extreme values may be limits of the assay
# reported combination Emax; entries follow
ASSAY READOUT: combination Emax

INSERT INTO measurements (compound, measured_value) VALUES
  ('CC(=O)c1c(C)c2cnc(Nc3ccc(N4CCNCC4)cn3)nc2n(C2CCCC2)c1=O [Palbociclib] + Cn1cnc2c(F)c(Nc3ccc(Br)cc3Cl)c(C(=O)NOCCO)cc21 [Selumetinib] (first compound max 10 µM, 7x7, partner max 10 µM)', 0.356),
  ('C=CCn1c(=O)c2cnc(Nc3ccc(N4CCN(C)CC4)cc3)nc2n1-c1cccc(C(C)(C)O)n1 [AZD1775] + C[C@@H]1COCCN1C2=NC(=NC(=C2)C3(CC3)[S@](=N)(=O)C)C4=C5C=CNC5=NC=C4 [AZD6738] (first compound max 1 µM, partner max 10 µM)', 0.486),
  ('Cc1nc(Nc2ncc(C(=O)Nc3c(C)cccc3Cl)s2)cc(N2CCN(CCO)CC2)n1 [Dasatinib] + CC(=O)Nc1cccc(-n2c(=O)n(C3CC3)c(=O)c3c(Nc4ccc(I)cc4F)n(C)c(=O)c(C)c32)c1 [Trametinib] (first compound max 2 µM, 7x7, partner max 1 µM)', 0.892),
  ('CS(=O)(=O)CCNCc1ccc(-c2ccc3ncnc(Nc4ccc(OCc5cccc(F)c5)c(Cl)c4)c3c2)o1 [Lapatinib] + Cn1cnc2c(F)c(Nc3ccc(Br)cc3Cl)c(C(=O)NOCCO)cc21 [Selumetinib] (first compound max 10 µM, 7x7, partner max 10 µM)', 0.424);
